MEASUREMENT_TARGET: biotinylated Gβ1γ2 mutant Met101Ala (rat) (UniProt P54311)
Sequence (P54311 whole entry M101A, chain 1 of 2): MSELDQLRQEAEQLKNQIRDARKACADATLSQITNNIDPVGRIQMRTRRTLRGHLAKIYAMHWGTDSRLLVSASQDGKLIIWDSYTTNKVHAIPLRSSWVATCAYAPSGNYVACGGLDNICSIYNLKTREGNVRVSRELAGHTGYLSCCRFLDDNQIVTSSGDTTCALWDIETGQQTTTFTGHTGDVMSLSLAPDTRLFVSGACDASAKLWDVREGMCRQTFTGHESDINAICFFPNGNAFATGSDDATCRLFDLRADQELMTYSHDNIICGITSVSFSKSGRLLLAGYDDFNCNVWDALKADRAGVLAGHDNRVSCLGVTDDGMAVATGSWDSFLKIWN
Sequence (P63212 2-68, chain 2 of 2, further chain): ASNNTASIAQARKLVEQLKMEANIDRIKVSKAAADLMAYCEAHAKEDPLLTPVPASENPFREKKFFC
PROTOCOL_DESCRIPTION: phage ELISA, % of wild-type b-βγ
# key: entry, value: % of Wild-Type Signal
Report the figure in % without appending any unit label.

SIGKALFILGYPDYD [phage 3.14 (SIGKALFILGYPDYD)]    26.8
WCPPKLEQWYDGCA (Group IV) [phage C2 (WCPPKLEQWYDGCA)]    157
SCEKRYGIEFCT [phage C4 (…)]    61.2

// next item, % of Wild-Type Signal requested
For the binder SCEKRLGVRSCT (Group III) [phage C5 (SCEKRLGVRSCT)] , what % of Wild-Type Signal is on record?
47.8
